Measured Target: UniProtKB Q9BY41
Sequence (Q9BY41 whole entry): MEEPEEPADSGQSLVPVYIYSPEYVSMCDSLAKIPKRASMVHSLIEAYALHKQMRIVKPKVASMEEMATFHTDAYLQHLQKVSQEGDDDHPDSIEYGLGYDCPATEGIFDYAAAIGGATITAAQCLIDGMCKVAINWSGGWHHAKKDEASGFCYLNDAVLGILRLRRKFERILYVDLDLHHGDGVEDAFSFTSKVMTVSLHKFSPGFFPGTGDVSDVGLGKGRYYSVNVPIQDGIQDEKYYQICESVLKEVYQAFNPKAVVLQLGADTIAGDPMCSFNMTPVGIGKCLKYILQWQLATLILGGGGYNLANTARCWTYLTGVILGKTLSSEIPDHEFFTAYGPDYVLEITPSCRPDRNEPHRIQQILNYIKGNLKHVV
Run Description: Inhibition of human recombinant HDAC8 using [Ac-Leu-Gly-Lys(Ac)-AMC substrate incubated for 15 to 30 mins
Test Conditions: read-out: Ki
Experimental Readout: Ki (µM)

Some entries whose results are on file:
>>> recorded_number("CC(C)[C@H]1NC(=O)C[C@@H](C/C=C\\CCC(=O)O)NC(=O)[C@@H](Cc2c[nH]c3ccccc23)NC(=O)[C@@H](C)NC1=O")
4.5
>>> recorded_number("CC(C)[C@H]1NC(=O)C[C@@H](CCCCCC(=O)O)NC(=O)[C@@H](Cc2c[nH]c3ccccc23)NC(=O)[C@@H](C)NC1=O")
4.3

[A] CC(C)[C@H]1NC(=O)C[C@@H](/C=C/CCCC(=O)O)NC(=O)[C@@H](Cc2ccccc2)NC(=O)[C@@H](C)NC1=O
[B] CC(C)[C@H]1NC(=O)C[C@@H](/C=C/CCCC(=O)O)NC(=O)[C@@H](Cc2c[nH]c3ccccc23)NC(=O)[C@@H](C)NC1=O
Record comparison, field Ki: mark the lower of A and B . Mark your selection by writing its label.
B
(B: 3 µM, A: 6 µM)

====

Measured Target: Histone deacetylase 2 (Homo sapiens)
Sequence (Q92769 whole entry): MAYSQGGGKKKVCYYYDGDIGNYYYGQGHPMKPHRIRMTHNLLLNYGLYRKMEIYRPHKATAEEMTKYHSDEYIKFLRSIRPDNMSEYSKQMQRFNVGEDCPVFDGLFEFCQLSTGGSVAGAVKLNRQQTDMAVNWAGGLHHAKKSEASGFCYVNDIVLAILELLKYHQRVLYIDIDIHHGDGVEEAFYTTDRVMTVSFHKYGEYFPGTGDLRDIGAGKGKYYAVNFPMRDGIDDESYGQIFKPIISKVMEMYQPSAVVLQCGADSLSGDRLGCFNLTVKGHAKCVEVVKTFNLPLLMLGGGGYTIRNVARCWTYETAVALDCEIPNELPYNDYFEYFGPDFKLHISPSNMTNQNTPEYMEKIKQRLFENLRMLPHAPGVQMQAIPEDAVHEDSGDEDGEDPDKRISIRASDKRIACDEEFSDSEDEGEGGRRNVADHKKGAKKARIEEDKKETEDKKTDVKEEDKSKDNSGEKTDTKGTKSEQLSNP
Run Description: Inhibition of human recombinant HDAC2 using [Ac-Leu-Gly-Lys(Ac)-AMC substrate incubated for 15 to 30 mins
Experimental Readout: Ki (µM)

Some entries whose results are on file:
>>> recorded_number("CC(C)[C@H]1NC(=O)C[C@@H](/C=C/CCCC(=O)O)NC(=O)[C@@H](Cc2c[nH]c3ccccc23)NC(=O)[C@@H](C)NC1=O")
0.4
>>> recorded_number("CC(C)[C@H]1NC(=O)C[C@@H](/C=C/CCCC(=O)O)NC(=O)[C@@H](Cc2ccc(O)cc2)NC(=O)[C@@H](C)NC1=O")
0.6
>>> recorded_number("CC(C)[C@H]1NC(=O)C[C@@H](/C=C/CCCC(=O)O)NC(=O)[C@@H](Cc2ccccc2)NC(=O)[C@@H](C)NC1=O")
1.7

[a] CC(C)[C@H]1NC(=O)C[C@@H](CCCCCC(=O)O)NC(=O)[C@@H](Cc2ccccc2)NC(=O)[C@@H](C)NC1=O
[b] CC(C)[C@H]1NC(=O)C[C@@H](CCCCCC(=O)O)NC(=O)[C@@H](Cc2c[nH]c3ccccc23)NC(=O)[C@@H](C)NC1=O
Record comparison, field Ki: mark the lower of a and b . Mark your selection by writing its label.
b
(b: 0.3 µM, a: 0.8 µM)

====

Measured Target: Histone deacetylase 11 (Homo sapiens, UniProt Q96DB2)
Sequence (Q96DB2 whole entry): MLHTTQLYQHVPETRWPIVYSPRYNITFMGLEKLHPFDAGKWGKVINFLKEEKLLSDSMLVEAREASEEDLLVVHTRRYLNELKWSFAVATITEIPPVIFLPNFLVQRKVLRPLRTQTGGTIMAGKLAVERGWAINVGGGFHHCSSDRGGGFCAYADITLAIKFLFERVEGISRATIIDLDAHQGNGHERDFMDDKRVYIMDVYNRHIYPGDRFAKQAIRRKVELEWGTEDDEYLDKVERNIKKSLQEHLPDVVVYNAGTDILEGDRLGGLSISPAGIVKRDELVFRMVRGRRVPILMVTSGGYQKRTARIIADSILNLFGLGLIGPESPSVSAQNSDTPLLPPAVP
Run Description: Inhibition of human recombinant HDAC11 using [Ac-Leu-Gly-Lys(Ac)-AMC substrate incubated for 15 to 30 mins
Experimental Readout: Ki (nM)

Some entries whose results are on file:
>>> recorded_number("CC(C)[C@H]1NC(=O)C[C@@H](C/C=C\\CCC(=O)O)NC(=O)[C@@H](Cc2c[nH]c3ccccc23)NC(=O)[C@@H](C)NC1=O")
900
>>> recorded_number("CC(C)[C@H]1NC(=O)C[C@@H](/C=C/CCCC(=O)O)NC(=O)[C@@H](Cc2ccc(O)cc2)NC(=O)[C@@H](C)NC1=O")
1300
>>> recorded_number("CC(C)[C@H]1NC(=O)C[C@@H](C/C=C\\CCC(=O)O)NC(=O)[C@@H](Cc2ccccc2)NC(=O)[C@@H](C)NC1=O")
1500
>>> recorded_number("CC(C)[C@H]1NC(=O)C[C@@H](/C=C/CCCC(=O)O)NC(=O)[C@@H](Cc2c[nH]c3ccccc23)NC(=O)[C@@H](C)NC1=O")
1100
>>> recorded_number("CC(C)[C@H]1NC(=O)C[C@@H](C/C=C\\CCC(=O)O)NC(=O)[C@@H](Cc2ccc(O)cc2)NC(=O)[C@@H](C)NC1=O")
800

[I] CC(C)[C@H]1NC(=O)C[C@@H](CCCCCC(=O)O)NC(=O)[C@@H](Cc2c[nH]c3ccccc23)NC(=O)[C@@H](C)NC1=O
[II] CC(C)[C@H]1NC(=O)C[C@@H](CCCCCC(=O)O)NC(=O)[C@@H](Cc2ccc(O)cc2)NC(=O)[C@@H](C)NC1=O
[III] CC(C)[C@H]1NC(=O)C[C@@H](CCCCCC(=O)O)NC(=O)[C@@H](Cc2ccccc2)NC(=O)[C@@H](C)NC1=O
[IV] CC(C)[C@H]1NC(=O)C[C@@H](/C=C/CCCC(=O)O)NC(=O)[C@@H](Cc2ccccc2)NC(=O)[C@@H](C)NC1=O
Give the ascending ranking of the items by reported Ki. Respond with the label ranking, as requested.
I, II, III, IV
